- TARGET OR TEST SYSTEM: D(4) dopamine receptor (Homo sapiens)
- Sequence (P21917 whole entry): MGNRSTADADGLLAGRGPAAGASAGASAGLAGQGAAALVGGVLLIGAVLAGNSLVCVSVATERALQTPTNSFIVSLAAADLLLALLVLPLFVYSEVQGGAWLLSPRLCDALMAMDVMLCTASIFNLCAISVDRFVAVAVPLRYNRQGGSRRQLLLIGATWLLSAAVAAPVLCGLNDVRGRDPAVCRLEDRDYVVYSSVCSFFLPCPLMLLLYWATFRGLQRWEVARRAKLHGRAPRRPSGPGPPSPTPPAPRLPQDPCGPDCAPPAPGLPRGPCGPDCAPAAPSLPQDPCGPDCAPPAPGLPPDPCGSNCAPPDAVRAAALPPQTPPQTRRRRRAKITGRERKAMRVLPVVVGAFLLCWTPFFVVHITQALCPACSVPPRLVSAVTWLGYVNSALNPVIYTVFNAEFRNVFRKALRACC
- ASSAY EXPLANATION: Displacement of [3H]N-methylspiperone from human recombinant dopamine D4 receptor incubated for […] by microbeta scintillation counting method
MEASURE NAME: Ki (nM)
Report as a plain number; the unit nM is understood.

COMPOUND: OC1(c2ccc(Cl)cc2)CCN(CCCc2nc3ccccc3s2)CC1
RECORDED RESULT: 163
--
COMPOUND: O=C1NCN(c2ccccc2)C12CCN(CCCCc1nc3ccccc3s1)CC2
RECORDED RESULT: 132

Turning now to a further record.
In: Please give the measured Ki for this compound: `O=C1NCN(c2ccccc2)C12CCN(CCCCc1nc3ccccc3o1)CC2`
Out: 118
